tested on: UACC-62 melanoma; experiment: NCI tumour cell line growth inhibition, 48 h; in the data active means GI50 below about 0.43 µM; inactive means the rest
Outcomes: active, inactive

>>> df
                                    compound  assigned_class
 0    COc1ccccc1/C=N\N/C(N)=N\N=C\c1ccccc1OC        inactive
 1  CCOC(=O)C1=CN(C)C=C(C(=O)OCC)C1c1cc(Br)c(OCC)c(OC)c1        inactive
 2           O=C(Nc1ccc(Br)cc1F)c1cc(F)ccc1O          active
 3  COc1cccc(CC(C)=C(c2ccc(OCCN(C)C)cc2)c2ccc(OCCN(C)C)cc2)c1        inactive
 4  CC(=O)OC1COC(Oc2c(C)c3c4c(c2O)[C@@H](C)CC[C@@H]4[C@@H](C)C[C@H]3C=C(C)C)C(O)C1OC(C)=O (stereo partly specified)        inactive
 5  COc1cccc2c1C(=O)c1c(O)c3c(c(O)c1C2=O)C[C@@](O)(C(=O)CO)C[C@@H]3OC1CC(N)CC(C)O1 (stereo partly specified)          active
 6           COc1ccc(/C=C\[N+](=O)[O-])cc1OC        inactive
 7  CCCCOC(=O)CNC(=O)OC/C=C/C#CC#C/C=C/COC(=O)NCC(=O)OCCCC        inactive
 8            NC(=O)/C=C/C(=O)c1c(Cl)cccc1Cl        inactive
 9  Cn1c(I)c(C#CCO[Si](C)(C)C(C)(C)C)c(=O)[nH]c1=O        inactive
10  COC(=O)c1ccc2c(c1)nc(NC(=O)c1ccccc1)n2CCCc1ccccc1        inactive

* * *

tested on: HS 578T breast; experiment: NCI tumour cell line growth inhibition, 48 h
Endpoint name: TGI (µM)

>>> print(df.to_string())
                                   compound  value_qualifier  data_value
0                   CCCCC#CC1=C(Br)C(=O)OC1                =        23.1
1  CC(=O)OC1COC(Oc2c(C)c3c4c(c2O)[C@@H](C)CC[C@@H]4[C@@H](C)C[C@H]3C=C(C)C)C(O)C1OC(C)=O (stereo partly specified)                >         100
2  CC(=O)N=C1N(/C=C2\C(=O)Oc3ccccc3C2=O)C(=O)/C(=C/c2cccc(Cl)c2Cl)N1C                =        26.1
3   CC(=O)Nc1sc(Br)cc1S(=O)(=O)c1ccc(Cl)cc1                =        56.3
4               Nc1c(C(=O)O)nnc2ccc(Cl)cc12                >         100
5  CCOC1(OCC)C2C=CC1C(COS(=O)(=O)c1ccc(C)cc1)C2COS(=O)(=O)c1ccc(C)cc1 (stereo unspecified)                >         100

* * *

tested on: NCI-H522 lung; assay: NCI tumour cell line growth inhibition, 48 h
Parameter: TGI. Scope: all listed entries.
Endpoint name: TGI

Compound	Data value
CCN1CCN(C(=O)[C@@]2(C)CC[C@]3(C)CC[C@]4(C)C(=CC(=O)[C@@H]5[C@@]6(C)CC[C@H](OC7C[C@@H](O)[C@@H](O)C(C)O7)C(C)(C)[C@@H]6CC[C@]54C)[C@@H]3C2)CC1 (some centres undefined)	6.15 µM
CO/N=C(/C)c1cccc(Nc2cc(-n3nnc4ccccc43)nc3ccccc23)c1	> 100 µM
O=c1oc2ccc3ccccc3c2cc1-c1nc2ccccc2s1	> 100 µM
C(=NCCN1CCOCC1)=NC1CCCCC1	> 100 µM
Cn1c(=O)c2c(ncn2CCNC(CO)C(O)c2ccc([N+](=O)[O-])cc2)n(C)c1=O (centres undefined)	> 100 µM
N.N.N.N.O=C([O-])CCl.O=C([O-])CCl.[Co+3].[O-][Cl+3]([O-])([O-])[O-]	> 100 µM
O=C(O)CCCc1nc2c(n1Cc1ccccc1)C(=O)c1ccccc1C2=O	> 100 µM
O=C(/C=C/c1ccccc1)Oc1cccc(O)c1	29.5 µM
CCOC(=O)c1ccc(NC(=O)Oc2ccc3c(C)cc(=O)oc3c2)cc1	66.7 µM
